Tested on: Salmonella typhimurium Ames mutagenicity, literature compiled
experimental-details: DSSTox (CPDBAS) Carcinogenic Potency Database Salmonella Mutagenicity
Calls of active or inactive are those of the source.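 How the source made its calls: active means chemicals rated mutagenic or weakly mutagenic in the Salmonella bacterial test by one literature review, or positive overall by another; inconclusive means no clear call, values can overlap the other calls; inactive means the rest.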
Hi! Could you answer with just one of these? label 1 (active), label 0 (inactive)

Exam item: Short answer needed: outcome of this test for O=[N+]([O-])c1ccc2c(c1)Cc1ccccc1-2 ?
Marked response: label 1

Exam item: What call does the record list for OCCOCCO ?
Marked response: label 0

Exam item: For this compound, state the assay outcome: CN(C)[C@@H]1C(=O)C(C(N)=O)=C(O)[C@@]2(O)C(=O)C3=C(O)c4c(O)cccc4[C@@](C)(O)[C@H]3[C@H](O)[C@@H]12
Marked response: label 0

Exam item: Called result for CC(=O)OC/C=C(\C)CCC=C(C)C
Marked response: label 0

Exam item: # fetch the recorded call for Nc1ccc(-c2ccc(N)cc2)cc1 here
Marked response: label 1

Exam item: Just curious, what result did C=CCN=C=S get here?
Marked response: label 1

Exam item: What is the recorded call for this compound in the test? ClCC(Cl)(Cl)Cl
Marked response: label 0

Exam item: Which result was noted for this compound in the test: CC(C)CON=O
Marked response: label 1

Exam item: Which outcome was assigned to Cc1ncc[nH]1 in this test?
Marked response: label 0

Exam item: Which outcome did this test record for the compound NNCCc1ccccc1 ?
Marked response: label 1

Exam item: Per the records of this test, what outcome belongs to O[C@@H]([C@H](O)[C@@H](O)CBr)[C@@H](O)CBr ?
Marked response: label 1

Exam item: Given CCC[N+](=O)[O-] , state the outcome it received in this test.
Marked response: label 0

Exam item: In this assay, the call recorded for COc1cc(-c2ccc(N=C=O)c(OC)c2)ccc1N=C=O was what?
Marked response: label 1

Exam item: # fetch the recorded call for O=S1(=O)OCCO1 here
Marked response: label 0

Exam item: Short answer needed: outcome of this test for C[C@H](CCC(=O)O)[C@H]1CC[C@H]2[C@@H]3CC[C@@H]4C[C@H](O)CC[C@]4(C)[C@H]3CC[C@]12C ?
Marked response: label 0

Exam item: Which outcome was entered for the compound Nc1ccc2cc3ccc(N)cc3nc2c1 in this test?
Marked response: label 1

Exam item: Kindly provide the recorded test outcome for the following compound: NNC(N)=O
Marked response: label 0

Exam item: For CCCCOCCO , what call appears in the results of this test?
Marked response: label 0

Exam item: Give the logged outcome of this assay for the following compound: OC(O)C(Cl)(Cl)Cl
Marked response: label 1

Exam item: Please indicate how the test categorized COc1ccc(O)cc1 .
Marked response: label 0

Exam item: Outcome? NC(N)=O
Marked response: label 0

Exam item: Outcome? COc1cc2c(c3oc4cccc(O)c4c(=O)c13)C1C=COC1O2 (stereo not drawn)
Marked response: label 1

Exam item: Entry O=C(O)CCCc1ccc(N(CCCl)CCCl)cc1 : call = ?
Marked response: label 1

Exam item: Field: outcome | Entry: O=S(=O)(O)c1ccc(N=Nc2c(O)ccc3cc(S(=O)(=O)O)ccc23)cc1
Marked response: label 0

Exam item: Please indicate how the test categorized O=C1C(c2[nH]c3ccc(S(=O)(=O)O)cc3c2O)=Nc2ccc(S(=O)(=O)O)cc21 .
Marked response: label 0

Exam item: Just curious, what result did O=S(=O)(O)c1cc(S(=O)(=O)O)c2c(N=Nc3ccccc3)c(O)ccc2c1 get here?
Marked response: label 0

Exam item: Recorded call for COc1cccc2c1C(=O)c1c(O)c3c(c(O)c1C2=O)C[C@@](O)(C(=O)CO)C[C@@H]3O[C@H]1C[C@H](N)[C@H](O)[C@H](C)O1 ?
Marked response: label 1

Exam item: Please share the test call associated with Nc1cc([N+](=O)[O-])ccc1O .
Marked response: label 1
